- System: barnyardgrass
- Procedure Text: Test B pre-/postemergence herbicide test
- Format: in vivo, Echinochloa crus-galli
- Measurement Parameters: postemergence, 125 g ai/ha; visual rating, scale 0 (no effect) to 100 (complete control)
- Procedure: […] At the same time, plants selected from these crop and weed species and also blackgrass (Alopecurus myosuroides Huds.), wheat (Triticum aestivum L.) and wild oat (Avena fatua L.) were treated with postemergence applications of test chemicals formulated in the same manner. […] Treated plants and controls were maintained in a greenhouse for 13 to 15 days, after which time all species were compared to controls and visually evaluated. […]
Attribute Measured: Barnyardgrass plant response rating
Returns: the value as a bare number; no unit string appended.

Which Barnyardgrass plant response rating value is on record for CCCc1nn(C(C)(C)C)cc1C(=O)Nc1cccc(C(=O)N(CC)CC)c1 ?
30

Which Barnyardgrass plant response rating value is on record for CCN(C)C(=O)c1cc(NC(=O)c2cc(C(C)(C)C)nn2CC)c(F)cc1F ?
0

Which Barnyardgrass plant response rating value is on record for C#CCNC(=O)c1cncc(NC(=O)c2cc(C(C)(C)C)nn2CC)c1 ?
0

Which Barnyardgrass plant response rating value is on record for CCN(CC)C(=O)c1cccc(NC(=O)c2cc(C(C)(C)C)nn2CC)n1 ?
0

Which Barnyardgrass plant response rating value is on record for C#CCNC(=O)c1cccc(NC(=O)c2sc(C(C)(C)C)nc2C)c1 ?
0

* * *

- Test system: wheat
- Procedure Text: Test B postemergence herbicide test
- Type: in vivo, Triticum aestivum
- Parameters: key: 0 = no effect, 100 = complete control
- Measurement Parameters: postemergence, 500 g ai/ha; scale 0 to 100, 0 is no effect, 100 is complete control
Attribute Measured: Wheat plant response rating
Returns: the value as a bare number; no unit string appended.

Which Wheat plant response rating value is on record for CCn1nc(C(C)(C)C)cc1C(=O)Nc1cccc(OC(C)C)c1 ?
40

Which Wheat plant response rating value is on record for CCN1N=C(C(C)(C)C)CC1C(=O)Nc1cc(C(=O)N2CCCC2)ccc1F (racemic) ?
30

Which Wheat plant response rating value is on record for C#CCNC(=O)c1ccc(F)c(NC(=O)c2cc(C3(C)CC3)nn2CC)c1 ?
10

Which Wheat plant response rating value is on record for CCc1cn(C(C)(C)C)nc1C(=O)Nc1cccc(C(=O)N(C)C)n1 ?
0

* * *

- Test system: barnyardgrass
- Procedure Text: Test B pre-/postemergence herbicide test
- Type: in vivo, Echinochloa crus-galli
- Measurement Parameters: 500 g ai/ha; visual rating, 0 = no effect, 100 = complete control; preemergence
Answer each item with its documented Plant response rating, Barnyardgrass.

Which Plant response rating, Barnyardgrass value is on record for CCNC(=O)c1cccc(NC(=O)c2cc(C(C)(C)C)n[nH]2)c1 ?
0

Which Plant response rating, Barnyardgrass value is on record for CCn1nc(C(C)(C)C)cc1C(=O)Nc1cc(C(=O)N2CCOCC2)ccc1F ?
90

Which Plant response rating, Barnyardgrass value is on record for CCN(C)C(=O)c1cc(NC(=O)c2cc(C(C)(C)C)nn2CC)c(F)cc1F ?
40

Which Plant response rating, Barnyardgrass value is on record for CCN(C)C(=O)c1cccc(NC(=O)c2sc(C(C)(C)C)nc2C)c1 ?
60

Which Plant response rating, Barnyardgrass value is on record for CCc1nn(C(C)(C)C)cc1C(=O)Nc1ccc(F)c(C(=O)N(C)C)c1 ?
60

Which Plant response rating, Barnyardgrass value is on record for CCN1N=C(C(C)(C)C)CC1C(=O)Nc1cc(C(=O)N2CCCCC2)ccc1F (racemic) ?
70

Which Plant response rating, Barnyardgrass value is on record for CCNC(=O)c1cncc(NC(=O)c2cc(C(C)(C)C)nn2CC)n1 ?
70
